biological target: T1, human CD47, endogenous cell surface form (Raji, CCRF-CEM cells) (human, UniProt Q08722 19-323); experiment: flow cytometry on Raji cells, MFI (FL4)
T1 construct: the cells carry endogenous CD47; also called cell surface CD47
Property measured: EC50 (read off the curve)

Binder	EC50 (read off the curve)
humanized antibody AB2.05 (human IgG1) (antibody, V domains shown) VH: QMQLVQSGAEVKKTGSSVKVSCKASGFNIKDYYLHWVRQAPGQALEWMGWIDPDNGDTEYAQKFQDRVTITRDRSMSTAYMELSSLRSEDTAMYYCNAAYGSSSYPMDYWGQGTTVTV VL: NIQMTQSPSAMSASVGDRVTITCKASQDIHRYLSWFQQKPGKVPKHLIYRANRLVDGVPSRFSGSGSGTEFTLTISSLQPEDFATYYCLQYDEFPYTFGGGTKVEIK	~0.2 nM
AB03.09 (antibody, V domains shown, humanized variant of 2A1; also called AB3.09) VH: EVQLVQSGAEVKKTGSSVKVSCKASGFNIKDYYLHWVRQAPGQALEWMGWIDPDNGDTEYAQKFQDRVTITRDRSMSTAYMELSSLRSEDTAMYYCNAAYGSSSYPMDYWGQGTTVTV VL: DIQMTQSPSAMSASVGDRVTITCKASQDIHRYLSWFQQKPGKVPKHLIYRANRLVDGVPSRFSGSGSGTEFTLTISSLQPEDFATYYCLQYDEFPYTFGGGTKVEIK	~0.1 nM

Q. Can you look up the measured EC50 (read off the curve) of AB17.05 (antibody, V domains shown) VH: QMQLVQSGAEVKKTGSSVKVSCKASGYTFTDYYLHWVRQAPGQALEWMGWIDPDNGDTEYAQKFQDRVTITRDRSMSTAYMELSSLRSEDTAMYYCNAAYGSSSYPMDYWGQGTTVTV VL: NIQMTQSPSAMSASVGDRVTITCKASQDIHRYLSWFQQKPGKVPKHLIYRANRLVDGVPSRFSGSGSGTEFTLTISSLQPEDFATYYCLQYDEFPYTFGGGTKVEIK for me?
A. ~0.2 nM

Q. Try the binder AB11.05 (antibody, V domains shown) VH: QMQLVQSGAEVKKTGSSVKVSCKASGFNIKDYYLHWVRQAPGQALEWMGWIDPDNGDTEYAQKFQDRVTITRDRSMSTAYMELSSLRSEDTAMYYCNAAYGSSPYPMDYWGQGTTVTV VL: NIQMTQSPSAMSASVGDRVTITCKASQDIHRYLSWFQQKPGKVPKHLIYRANRLVDGVPSRFSGSGSGTEFTLTISSLQPEDFATYYCLQYDEFPYTFGGGTKVEIK
A. ~0.2 nM
